Signal decrease values for the binders below.
molecular target: T1, biotin-labeled human CD137 fused to human IgG1 Fc fragment (human, biotin-labeled); experiment: competitive bead ELISA, decrease of signal on biotin-human CD137-Fc with 125 pmol/well free CD3 epsilon peptide against 0
T1 construct: Immobilised on streptavidin beads through biotin; also called human CD137-Fc; biotin-human CD137-Fc
Quick note: number first, unit second.

[
  {
    "BINDER": "Du115/DUL008 (antibody, V domains shown, Human IgG1 format; also called dBBDu_115 with L008) VH: QVQLVESGGGLVQPGRSLRLSCAASGFTFSNAWMHWVRQAPGKGLEWVAQIKDKANSYNTYYAPSVKGRFTISRDDSKNSIYLQMNSLKTEDTAVYYCRYVHYGSSYGFLFAGYGVDAWGQGTTVTVSS VL: DIVMTQSPLSLPVTPGEPASISCQSSEELLHANRKTYLHWYQQKPGQAPRLLIYKVQNRFSGVPDRFSGSGSGTDFTLKISRVEAEDVGVYYCAQGTATPFTFGQGTKLEIK",
    "REPORTED MEASUREMENT": "97%"
  },
  {
    "BINDER": "dBBDu193 (antibody, human IgG1, V domains shown, IgG: VH joined to human IgG1 CH1-Fc, GLS3000 as light chain) VH: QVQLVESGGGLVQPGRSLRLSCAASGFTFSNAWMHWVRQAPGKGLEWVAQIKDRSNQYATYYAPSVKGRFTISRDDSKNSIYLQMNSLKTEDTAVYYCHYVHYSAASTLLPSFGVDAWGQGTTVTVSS VL: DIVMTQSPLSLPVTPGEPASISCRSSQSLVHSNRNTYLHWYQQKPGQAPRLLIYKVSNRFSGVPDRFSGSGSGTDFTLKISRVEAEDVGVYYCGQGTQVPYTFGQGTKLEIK",
    "REPORTED MEASUREMENT": "87.5%"
  },
  {
    "BINDER": "dBBDu199 (antibody, human IgG1, V domains shown, IgG: VH joined to human IgG1 CH1-Fc, GLS3000 as light chain) VH: QVQLVESGGGLVQPGRSLRLSCAASGFTFSNAWMHWVRQAPGKGLEWVAQIKDKQSGYNTYYAPSVKGRFTISRDDSKNSIYLQMNSLKTEDTAVYYCHYVHYASASTVLPAFGVDAWGQGTTVTVSS VL: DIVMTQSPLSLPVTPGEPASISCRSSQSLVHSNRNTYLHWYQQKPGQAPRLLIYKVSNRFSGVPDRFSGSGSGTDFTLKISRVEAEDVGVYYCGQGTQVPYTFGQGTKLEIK",
    "REPORTED MEASUREMENT": "94.2%"
  }
]

In: Give Signal decrease for the following binder: dBBDu204 (antibody, human IgG1, V domains shown, IgG: VH joined to human IgG1 CH1-Fc, GLS3000 as light chain) VH: QVQLVESGGGLVQPGRSLRLSCAASGFTFSNAWMHWVRQAPGKGLEWVAQIKDRSNNYATYYAESVKGRFTISRDDSKNSIYLQMNSLKTEDTAVYYCHYVHYASASTVLPAFGVDAWGQGTTVTVSS VL: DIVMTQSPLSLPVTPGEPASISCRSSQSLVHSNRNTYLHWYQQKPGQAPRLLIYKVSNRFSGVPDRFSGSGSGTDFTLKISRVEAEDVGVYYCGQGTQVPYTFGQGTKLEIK
Out: 95.7%

In: Annotate the binder dBBDu125 (antibody, human IgG1, V domains shown, IgG: VH joined to human IgG1 CH1-Fc, GLS3000 as light chain; also called DXDU01_3_#019; DXDU01_3 #019) VH: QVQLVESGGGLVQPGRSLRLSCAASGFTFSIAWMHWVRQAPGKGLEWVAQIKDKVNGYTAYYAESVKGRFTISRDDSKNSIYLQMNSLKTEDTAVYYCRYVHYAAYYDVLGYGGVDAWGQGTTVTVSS VL: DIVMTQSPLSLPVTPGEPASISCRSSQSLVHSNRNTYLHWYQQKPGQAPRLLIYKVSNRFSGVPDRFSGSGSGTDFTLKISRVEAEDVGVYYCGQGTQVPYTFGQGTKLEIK with its measured Signal decrease.
Out: 96.7%

In: For dBBDu179 (antibody, human IgG1, V domains shown, IgG: VH joined to human IgG1 CH1-Fc, GLS3000 as light chain) VH: QVQLVESGGGLVQPGRSLRLSCAASGFTFSNAWMHWVRQAPGKGLEWVAQIKDRSNQYATYYAPSVKGRFTISRDDSKNSIYLQMNSLKTEDTAVYYCHYVHYASASTVLPAFGVDAWGQGTTVTVSS VL: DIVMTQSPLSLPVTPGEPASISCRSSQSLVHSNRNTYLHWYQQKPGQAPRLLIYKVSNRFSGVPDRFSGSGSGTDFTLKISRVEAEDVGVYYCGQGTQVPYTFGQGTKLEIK , write its Signal decrease.
Out: 95.7%

In: Identify measured Signal decrease corresponding to dBBDu126 (antibody, human IgG1, V domains shown, IgG: VH joined to human IgG1 CH1-Fc, GLS3000 as light chain; also called DADU01_3_#001; DADU01_3 #001) VH: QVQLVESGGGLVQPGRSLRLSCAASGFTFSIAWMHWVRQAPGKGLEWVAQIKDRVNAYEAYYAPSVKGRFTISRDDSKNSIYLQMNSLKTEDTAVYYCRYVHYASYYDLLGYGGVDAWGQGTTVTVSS VL: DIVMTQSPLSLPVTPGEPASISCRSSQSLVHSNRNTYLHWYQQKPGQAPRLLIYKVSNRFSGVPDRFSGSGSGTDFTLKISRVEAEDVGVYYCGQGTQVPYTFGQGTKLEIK
Out: 97.8%

In: For the binder dBBDu122 (antibody, human IgG1, V domains shown, IgG: VH joined to human IgG1 CH1-Fc, GLS3000 as light chain; also called DXDU01_3_#072; DXDU01_3 #072) VH: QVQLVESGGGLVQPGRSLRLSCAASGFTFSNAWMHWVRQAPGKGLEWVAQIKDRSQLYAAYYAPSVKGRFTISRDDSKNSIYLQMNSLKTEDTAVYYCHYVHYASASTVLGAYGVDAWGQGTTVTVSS VL: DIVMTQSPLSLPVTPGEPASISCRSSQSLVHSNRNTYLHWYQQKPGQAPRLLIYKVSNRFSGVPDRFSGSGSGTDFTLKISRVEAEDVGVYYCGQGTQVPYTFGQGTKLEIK , give its reported Signal decrease.
Out: 30.2%

In: Provide measured Signal decrease value, entry: anti-human CD137 antibody described in WO2005/035584A1 (abbreviated as B) (antibody, V domains shown, also called control anti-CD137 antibody) VH: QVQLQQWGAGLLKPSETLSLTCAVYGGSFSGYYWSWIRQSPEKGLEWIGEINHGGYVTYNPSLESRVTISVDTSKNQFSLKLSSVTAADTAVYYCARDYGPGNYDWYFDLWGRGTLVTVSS VL: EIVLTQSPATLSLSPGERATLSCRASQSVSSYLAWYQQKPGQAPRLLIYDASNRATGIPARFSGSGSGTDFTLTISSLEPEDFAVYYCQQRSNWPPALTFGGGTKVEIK
Out: 1.26%
